# credit: patent US20200270309A1

CNV Incidence (%): recorded values
test system: choroidal neovascularization; test: Choroidal neovascularization in rats (laser photocoagulation, FFA); type: in vivo; details: day 14 after administration, total light spot number was 137, 0.05 μM in the vitreous chamber once a day for 1 week, BN rats
Peptide text beside a SMILES is read from it. * marks the point of attachment. X52 = O=C1C=CC(=O)N1c1ccccc1CCCCCCCC(=O)*; X46 = O=C1C=CC(=O)N1c1cccc(CCCCC(=O)*)c1; X63 = O=C1C=CC(=O)N1c1ccccc1CCCCCCC(=O)*
quantity: CNV Incidence (%)

{"compound": "C[C@H](NC(=O)CNC(=O)[C@H](CCCNC(=N)N)NC(=O)CCCCCCc1ccccc1N1C(=O)C=CC1=O)C(=O)N[C@@H](CC(=O)O)C(=O)N[C@@H](CCCNC(=N)N)C(=O)N[C@@H](C)C(=O)NCC(=O)NCC(=O)NCC(=O)NCC(=O)N[C@@H](CCCNC(=N)N)C(=O)NCC(=O)N[C@@H](CC(=O)O)C(=O)O [X18] (X63-RGADRAGGGGRGD-OH)", "measured-result": 45.99}
{"compound": "C[C@H](NC(=O)CNC(=O)[C@H](CCCNC(=N)N)NC(=O)CCCCc1cccc(N2C(=O)C=CC2=O)c1)C(=O)N[C@@H](CC(=O)O)C(=O)N[C@@H](CCCNC(=N)N)C(=O)N[C@@H](C)C(=O)NCC(=O)NCC(=O)NCC(=O)NCC(=O)N[C@@H](CCCNC(=N)N)C(=O)NCC(=O)N[C@@H](CC(=O)O)C(=O)O [X28] (X46-RGADRAGGGGRGD-OH)", "measured-result": 45.26}
{"compound": "C[C@H](NC(=O)CNC(=O)[C@H](CCCNC(=N)N)NC(=O)CCCCCCCc1ccccc1N1C(=O)C=CC1=O)C(=O)N[C@@H](CC(=O)O)C(=O)N[C@@H](CCCNC(=N)N)C(=O)N[C@@H](C)C(=O)NCC(=O)NCC(=O)NCC(=O)NCC(=O)N[C@@H](CCCNC(=N)N)C(=O)NCC(=O)N[C@@H](CC(=O)O)C(=O)O [X19] (X52-RGADRAGGGGRGD-OH)", "measured-result": 41.61}
